- Procedure Details: chemical genetic growth profiling, strain panel (AID 1159580);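 note: tested at 20 µM; growth read once vehicle control cultures reached saturation at 30 °C; 1 = growth at the plate median or of vehicle wells; lower values mean less growth of the strain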
- Experimental Conditions: S. cerevisiae deletion strains, growth OD, locus YAL040C, strain CLN3, stronger effect = lower value
The whole screen tested about 5,500 compounds, of which about 2,000 (36%) were called active. Not shown: some 18% with an inconclusive outcome. The list shows a part of the results.
Assay Metric: normalized growth
Write the number on its own, no unit after it.

Look over these answered cases.
| Compound | normalized growth |
| --- | --- |
| O=C(/C=C/c1ccc(O)cc1)c1ccc(O)cc1O | 0.986 |
| CCCCC/C=C\CC(O)/C=C/c1cccc(CC(O)CCCCO)n1 (stereo unspecified) | 0.995 |
| CN1C(=O)CCC1c1cccnc1 (stereo unspecified) | 1.02 |

Task: Find the recorded normalized growth belonging to O=C(Nc1ccc([N+](=O)[O-])cc1Cl)c1cc(Cl)ccc1O and report it.
Output: 0.969

Task: Continue with COc1ccc(NC(=O)/C=C/c2ccc(Cl)cc2)cc1
Output: 0.958

Task: Continue with CC(NC(C)(C)C)C(=O)c1cccc(Cl)c1 (stereo unspecified)
Output: 0.958

* * *

- Procedure Details: chemical genetic growth profiling, strain panel (AID 1159580)
- Experimental Conditions: S. cerevisiae deletion strains, growth OD, locus YOR061W, strain CKA2, stronger effect = lower value
Among all 5,500 compounds or so, about 2,000 (36%) were called active. About 18% were inconclusive and are not listed. Some of the results follow.
Assay Metric: normalized growth
Write the number on its own, no unit after it.

Look over these answered cases.
| Molecule | Test Value |
| --- | --- |
| COc1cc(O)ccc1C(C)=O | 0.96 |
| NC(=NCCCCCCN=C(N)N=C(N)Nc1ccc(Cl)cc1)N=C(N)Nc1ccc(Cl)cc1 | 0.0471 |
| O=[N+]([O-])c1ccc(NCc2ccc(Cl)c(Cl)c2)nc1 | 0.884 |
| COC(=O)c1cc([N+](=O)[O-])ccc1S(=O)(=O)Cc1ccc(Cl)cc1 | 0.948 |
| O=C1NS(=O)(=O)c2ccccc21 | 1.02 |
| CC(=O)Oc1c(C)c(C)c2c(c1C)CCC(C)(CCCC(C)CCCC(C)CCCC(C)C)O2 (stereo unspecified) | 1.03 |
| CCCC(=O)Nc1ccc(OCC(O)CNC(C)C)c(C(C)=O)c1 (stereo unspecified) | 1.01 |
| O=C(O)c1cccnc1C(=O)O | 1.02 |

Task: Find the recorded normalized growth belonging to C[N+]1(C)CCCC(OC(=O)C(O)(c2ccccc2)c2ccccc2)C1 (stereo unspecified) and report it.
Output: 0.999

Task: Continue with C[C@H]1C(=O)CCC2[C@]3(C)CC[C@@]4(C)C5CC(C)(C)CC[C@]5(C)CC[C@]4(C)C3CC[C@@]21C (stereo partly specified)
Output: 0.985

Task: Continue with CC1SC(c2cccnc2)N(c2ccc(Cl)cc2)C1=O (stereo unspecified)
Output: 0.919

Task: Continue with COC(=O)CC1C(C)(C)C(=O)C2CC3(O)C4=CC(=O)OC(c5ccoc5)C4(C)CCC3C1(C)C2=O (stereo unspecified)
Output: 1.01

* * *

- Procedure Details: chemical genetic growth profiling, strain panel (AID 1159580)
- Experimental Conditions: S. cerevisiae deletion strains, growth OD, locus YHR087W, strain rtc3, stronger effect = lower value
About 2,000 (36%) of roughly 5,500 compounds were called active. About 18% were inconclusive and are not listed. The list shows a part of the results.
I'd appreciate it if you marked entries Condition met when normalized growth is lower than 1 and Condition not met when it is not.

Use these answered entries as a reference point.
| Test Smiles | Answer Label |
| --- | --- |
| O=C(O)c1cccc([N+](=O)[O-])c1C(=O)Nc1ccc(F)cc1 | Condition met |
| Cc1ccc(S(=O)(=O)N2CCC(C(c3ccccc3)c3ccccc3)CC2)cc1 | Condition not met |

Now for another entry.
Task: Please let me know if CCOC(=O)c1ccc(N2CCOCC2)c(N=Cc2cc(Cl)ccc2O)c1 shows normalized growth below 1.
Output: Condition met

* * *

- Procedure Details: chemical genetic growth profiling, strain panel (AID 1159580)
- Experimental Conditions: S. cerevisiae deletion strains, growth OD, locus YDL040C, strain nat1, stronger effect = lower value
Hit rate of the full screen: of about 5,500 compounds, about 2,000 (36%) were called active. About 18% were inconclusive and are not listed. The list shows a part of the results.
Recorded normalized growth, one value per entry.
Write the number on its own, no unit after it.

Look over these answered cases.
| Test Smiles | normalized growth |
| --- | --- |
| COc1ccc(-c2c(O)c3c(OC)c4c(cc3oc2=O)OC(C)(C)C=C4)cc1 | 0.95 |
| CNC(=O)N(C)c1nnc(C(C)(C)C)s1 | 0.99 |

Task: Find the recorded normalized growth belonging to COc1cc([C@@H]2c3cc4c(cc3[C@H](O)[C@H]3COC(=O)[C@H]23)OCO4)cc(OC)c1OC and report it.
Output: 1

Task: Continue with NS(=O)(=O)c1cc2c(cc1Cl)NCNS2(=O)=O
Output: 1

Task: Continue with CC(=O)c1ccc[nH]1
Output: 0.998

Task: Continue with COc1cc(Cc2cnc(N)nc2N)cc(OC)c1OC
Output: 1.01

* * *

- Procedure Details: chemical genetic growth profiling, strain panel (AID 1159580)
- Experimental Conditions: S. cerevisiae deletion strains, growth OD, locus YJR075W, strain HOC1
In all, about 5,500 compounds went through this assay and about 2,000 (36%) were called active. Roughly 18% stayed inconclusive and do not appear here. Cut-off read from the data, not from the text of the source: active = normalized growth mostly below about 0.91 (no sharp cut-off); inconclusive = no clear call, values can overlap the other calls; inactive = mostly above about 0.92. Some of the results follow.
Assign a class; possible classes are y for active, n for inactive

| Compound | Answer Label |
| --- | --- |
| CC(C)=CCC/C(C)=C/CO | n |
| C/C(=N/O)c1ccc2c(c1)C(C)(C)CCC2(C)C | n |
| CCCc1ccc(-c2nc(-c3ccc(C)cc3)no2)cc1 | n |
| COc1ccc(-c2c(OC)c3c(OC)c4c(cc3oc2=O)OC(C)(C)C=C4)cc1 | n |
| COc1cc([C@@H]2c3cc4c(cc3[C@H](O)[C@H]3COC(=O)[C@H]23)OCO4)cc(OC)c1OC | n |
| O=c1c(O)cccc2cc(O)c(O)c(O)c12 | y |
| N[C@@H](Cn1ccc(=O)[nH]c1=O)C(=O)O | n |
| O=C(/C=C/c1ccccc1)c1ccc(O[C@@H]2O[C@H](CO)[C@@H](O)[C@H](O)[C@H]2O)cc1O | n |

Task: Answer briefly: the call reported for CC(=O)OC1CCC23CC1(C)CCC2C(C)(C)CC3OC(C)=O (stereo unspecified) in this assay.
Output: n

Task: Continue with COc1cc(OC)c2c(OC)c(-c3ccc4c(c3)OCO4)c(=O)oc2c1
Output: n

Task: Continue with O=C(/C=C/c1ccccc1)c1c(O)cc(O)cc1O
Output: n

* * *

- Procedure Details: chemical genetic growth profiling, strain panel (AID 1159580);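 note: tested at 20 µM; growth read once vehicle control cultures reached saturation at 30 °C; 1 = growth at the plate median or of vehicle wells; lower values mean less growth of the strain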
- Experimental Conditions: S. cerevisiae deletion strains, growth OD, locus YDR101C, strain arx1
The whole screen tested about 5,500 compounds, of which about 2,000 (36%) were called active. Another 18% or so got no clear call; they are omitted. Rule as the data show it: active = normalized growth mostly below about 0.91 (no sharp cut-off); inconclusive = no clear call, values can overlap the other calls; inactive = mostly above about 0.92. The list shows a part of the results.
Assign a class; possible classes are active, inactive

Use these answered entries as a reference point.
| Compound | Answer Label |
| --- | --- |
| Cc1cc(O)c2c(c1)C(=O)c1cc(O)cc(O)c1C2=O | active |
| COc1ccc(CC(=O)c2ccc(O)cc2O)cc1 | inactive |
| C[C@]12[C@H](O)CC3C(CC[C@@H]4C[C@@H](O)CC[C@]34C)[C@@]1(O)CC[C@@H]2C1=CC(=O)OC1 (stereo not given in full) | inactive |

Task: Answer briefly: the call reported for COc1ccc([C@@H](C)C(=O)c2ccc(O)cc2O)cc1 in this assay.
Output: inactive

Task: Continue with CC(C)[C@@H]1CC[C@@H](C)C[C@H]1OC(=O)c1ccccc1
Output: inactive

* * *

- Procedure Details: chemical genetic growth profiling, strain panel (AID 1159580);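 note: tested at 20 µM; growth read once vehicle control cultures reached saturation at 30 °C; 1 = growth at the plate median or of vehicle wells; lower values mean less growth of the strain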
- Experimental Conditions: S. cerevisiae deletion strains, growth OD, locus YER016W, strain bim1, stronger effect = lower value
The campaign covered roughly 5,500 compounds. About 2,000 (36%) were called active. Inconclusive results (about 18%) are left out. Some of the results follow.
Assay Metric: normalized growth
Write the number on its own, no unit after it.

Task: Find the recorded normalized growth belonging to O=C1c2ccccc2C(=O)c2ccccc21 and report it.
Output: 0.992

Task: Continue with CC(=O)O[C@H]1CC2CCC3C(CC[C@@]4(C)C3C[C@H]([N+]3(C)CCCCC3)[C@@H]4OC(C)=O)[C@@]2(C)C[C@@H]1N1CCCCC1 (some centres undefined)
Output: 1.02

* * *

- Procedure Details: chemical genetic growth profiling, strain panel (AID 1159580);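 note: tested at 20 µM; growth read once vehicle control cultures reached saturation at 30 °C; 1 = growth at the plate median or of vehicle wells; lower values mean less growth of the strain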
- Experimental Conditions: S. cerevisiae deletion strains, growth OD, locus YNL271C, strain bni1
Out of some 5,500 compounds screened, about 2,000 (36%) were called active. Inconclusive results (about 18%) are left out. Cut-off read from the data, not from the text of the source: active = normalized growth mostly below about 0.91 (no sharp cut-off); inconclusive = no clear call, values can overlap the other calls; inactive = mostly above about 0.92. The list shows a part of the results.
Assign a class; possible classes are active, inactive

Use these answered entries as a reference point.
| Molecule | Answer Label |
| --- | --- |
| O=c1c(O)c(-c2ccccc2)oc2ccccc12 | inactive |
| CC(=O)NS(=O)(=O)c1ccc(N)cc1 | inactive |
| O=C1C=C(O)c2ccccc2C1=O | inactive |
| COc1ccc(NS(=O)(=O)c2ccc(N)cc2)nn1 | inactive |
| CON | inactive |

Task: Answer briefly: the call reported for C[C@]12CC[C@@H](O)C[C@H]1CCc1ccccc12 in this assay.
Output: inactive

Task: Continue with O[C@H]1[C@H](O)[C@@H](O)C2OC[C@H]1O2
Output: inactive

Task: Continue with C/C(=C\CO)CC[C@H](C)CCC[C@H](C)CCCC(C)C
Output: active

Task: Continue with CN1CCN(C2=Nc3cc(Cl)ccc3Nc3ccccc32)CC1
Output: inactive

Task: Continue with O=c1c(O)c(-c2ccccc2)oc2cc(O)ccc12
Output: active
